target or test system: Focal adhesion kinase 1 (Homo sapiens) (UniProt Q05397)
Sequence (Q05397 whole entry, looked up): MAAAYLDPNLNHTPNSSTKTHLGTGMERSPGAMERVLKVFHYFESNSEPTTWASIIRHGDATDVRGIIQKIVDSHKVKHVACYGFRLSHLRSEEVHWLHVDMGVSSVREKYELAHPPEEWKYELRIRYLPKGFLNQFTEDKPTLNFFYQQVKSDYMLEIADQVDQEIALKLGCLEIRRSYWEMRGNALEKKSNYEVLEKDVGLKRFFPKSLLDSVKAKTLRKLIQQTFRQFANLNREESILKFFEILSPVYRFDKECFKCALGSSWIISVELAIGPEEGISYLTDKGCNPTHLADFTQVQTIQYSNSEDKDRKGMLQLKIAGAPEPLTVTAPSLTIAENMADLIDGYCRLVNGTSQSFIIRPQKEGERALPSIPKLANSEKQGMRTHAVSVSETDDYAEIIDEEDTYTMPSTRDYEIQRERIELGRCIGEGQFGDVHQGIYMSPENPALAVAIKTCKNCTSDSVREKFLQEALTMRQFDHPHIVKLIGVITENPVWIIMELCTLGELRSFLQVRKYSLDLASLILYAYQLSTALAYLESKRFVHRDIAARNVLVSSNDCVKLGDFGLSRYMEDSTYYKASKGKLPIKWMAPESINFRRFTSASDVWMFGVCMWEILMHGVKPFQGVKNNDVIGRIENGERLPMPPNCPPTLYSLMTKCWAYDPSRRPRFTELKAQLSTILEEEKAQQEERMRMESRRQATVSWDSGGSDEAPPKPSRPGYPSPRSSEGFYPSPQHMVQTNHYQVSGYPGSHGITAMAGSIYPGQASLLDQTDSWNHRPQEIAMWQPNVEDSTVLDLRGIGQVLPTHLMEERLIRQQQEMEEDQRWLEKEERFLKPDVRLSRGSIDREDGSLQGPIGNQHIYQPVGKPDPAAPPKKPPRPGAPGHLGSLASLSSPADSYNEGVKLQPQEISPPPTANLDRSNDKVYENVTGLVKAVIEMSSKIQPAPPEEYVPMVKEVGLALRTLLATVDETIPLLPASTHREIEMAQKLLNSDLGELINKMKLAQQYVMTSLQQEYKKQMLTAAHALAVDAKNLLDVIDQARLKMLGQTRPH
assay details: small-molecule microarray binders of FAK, primary screen, biochemical, 635/667 nm fluorescence, BSA, DTT (AID 1130);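 note: composite of spot emission at 667 nm and signal to noise over triplicate slides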
cond: PTK2 binding, 635 nm fluorescence, higher = more signal
For each of the molecules below, state its composite z-score.
Give bare numbers.

For every item below, please supply its composite z-score.
1. CC(=O)NCCCC[C@@H]1NC(=O)[C@H]2C[C@@H](C(=O)NCCCCCC[N+](C)(C)C)[C@@H](c3cccc(OCCO)c3)N2C1=O
2. COc1ccc(C#Cc2ccc3c(c2)[C@]2(C(=O)N3)[C@H](c3ccc(O)cc3)N3[C@H](c4ccccc4)[C@H](c4ccccc4)OC(=O)[C@H]3[C@@H]2C(=O)N2CCCCCCC2)cc1

1. 0.207
2. 0.75

For every item below, please supply its composite z-score.
1. O=C1OCC=C[C@H]2OC34C=CCN(c5ccc6ccccc6c5)C(=O)[C@H]3N(CCCO)C(=O)[C@@H]4[C@@H]12 (some centres undefined)
2. O=C1O[C@@H](c2ccccc2)[C@@H](c2ccccc2)N2[C@@H](c3ccc(OCCO)cc3)[C@]3(C(=O)Nc4ccc(C#CC5=CCCCC5)cc43)[C@@H](C(=O)O)[C@H]12
3. C=CCNC(=O)[C@@H]1[C@H]2C(=O)O[C@H](c3ccccc3)[C@H](c3ccccc3)N2[C@H](c2ccccc2OCCO)[C@@]12C(=O)Nc1ccc(C#CC3=CCCCC3)cc12
4. C=CC[C@@]1(C(=O)N2CCOCC2)N=C(c2ccc(OCCCO)cc2)O[C@@H]1c1ccccc1N=[N+]=[N-]
5. COCC(=C=CC[C@H](O)c1ccc(OCCO)cc1)C[C@H](O)c1cc(Cl)cc(Cl)c1O
6. NCCCCCNC(=O)[C@H]1C[C@H]2C(=O)NCC(=O)N2[C@H]1c1cccc(OCCO)c1
7. O=c1cccc(CCc2ccccc2)o1
8. COc1cc(CO)ccc1OC(C)=O

1: -0.409; 2: 1.31; 3: 0.683; 4: 0.304; 5: -0.427; 6: 0.369; 7: 0.675; 8: 0.315

For every item below, please supply its composite z-score.
1. [N-]=[N+]=NCc1ccccc1[C@H]1OC(c2ccc(OCCCO)cc2)=N[C@@]1(CCS(=O)(=O)c1ccccc1)C(=O)N1CCOCC1
2. COC(=O)C(CC#Cc1ccc2c(c1)[C@]1(C(=O)N2)[C@H](c2ccc(OCCO)cc2)N2[C@H](c3ccccc3)[C@H](c3ccccc3)OC(=O)[C@H]2[C@@H]1C(=O)NC[C@H](O)c1ccccc1)C(=O)OC
3. CCCCC(O)C1C=CC2C(=O)N(C3CCCCC3)C(=O)C2N1Nc1ccc(OC)cc1 (centres undefined)

0.176
0.751
0.601

For every item below, please supply its composite z-score.
1. CN(C)C(=O)[C@]1(CCC(=O)OC(C)(C)C)N=C(c2ccc(OCCCO)cc2)O[C@@H]1c1ccccc1N=[N+]=[N-]
2. C=CCOC(=O)[C@@H]1[C@H]2C(=O)O[C@H](c3ccccc3)[C@H](c3ccccc3)N2[C@H](c2ccc(OCCOC(=O)[C@@H]3C[C@@H]4C(=O)NCC(=O)N4[C@@H]3c3cccc(OCCO)c3)cc2)[C@@]12C(=O)Nc1ccc(I)cc12
3. CC(C)Cc1ccc(CN2CC[C@@H](NS(=O)(=O)c3ccccc3)C2)cc1
4. COC(=O)[C@@]1(Cc2ccccc2N=[N+]=[N-])COC(c2ccc(OCCCO)cc2)=N1
5. Cc1ccc(F)cc1S(=O)(=O)N[C@@H]1CCN(Cc2ccc(-c3ccccc3)cc2)C1
6. COC(=O)c1ccc(C(O)C2C=CC3C(=O)N(c4ccccc4)C(=O)C3N2Nc2ccc(C#N)cc2)o1 (centres undefined)
7. C=C(COC)C(=O)CC[C@H](OC(C)=O)c1cccc(OCCO)c1
8. C=CCC(OC(C)=O)[C@@H]1[C@@H](N(Cc2cc3ccccc3o2)C(=O)c2ccc(C)cc2)c2cc(OCCCO)ccc2N1C(=O)c1ccc2ccccc2c1 (some centres undefined)

0.383
0.259
-0.0553
0.676
0.377
0.303
-0.138
0.281

For every item below, please supply its composite z-score.
1. COc1ccc(CCNC(=O)[C@@]2(c3ccc([N+](=O)[O-])cc3)CC(=O)N(CC34CC5CC(CC(C5)C3)C4)[C@@H]2c2ccc(CO)cc2)cc1
2. C[C@H]1NC(=O)[C@H](Cc2ccccc2)NC(=O)[C@@]23C(=O)N[C@@H](Cc4ccccc4)C2[C@H](C)[C@@]2(C)O[C@H]2C3/C=C/C/C=C\CNC1=O (some centres undefined)
3. CO[C@H]1O[C@H](CO)[C@@H](OC(=O)Nc2ccc3c(c2)OCO3)[C@H](OC(=O)Nc2ccccc2)[C@H]1OC(=O)Nc1ccccc1
4. CCCNC(=O)[C@@]1(c2ccc([N+](=O)[O-])cc2)CC(=O)N(CC23CC4CC(CC(C4)C2)C3)[C@@H]1c1ccc(CO)cc1
5. CC(C)c1ccc(NN2C(C(O)c3c(F)cccc3Cl)C=CC3C(=O)N(c4ccccc4)C(=O)C32)cc1 (centres undefined)

[0.397, -0.261, 0.927, 0.117, 0.823]

For every item below, please supply its composite z-score.
1. O=C1[C@]2(CO)C=C(Br)[C@@H](C[C@@H]2c2ccccc2)[C@@]12CO2
2. CC(C)(C)OC(=O)CC[C@]1(C(=O)N2CCCCC2)N=C(c2ccc(OCCCO)cc2)O[C@H]1c1ccccc1N=[N+]=[N-]
3. COC(=O)C[C@@H]1C[C@H](C)[C@]2(O1)C(=O)N(Cc1ccccc1)c1ccc(NC(C)=O)cc12

-0.0687
1.91
-0.183

Just for reference, PubChem BioAssay is where these values come from.
